tested on: MCF10A; assay: one-nucleolus phenotype percent effect (relative to siNT 0% and siNOL11 100%); higher = more cells with one nucleolus (ribosome biogenesis inhibition); conditions: 20 nM; 72 h
Categories are defined by ranges of one-nucleolus phenotype percent effect, namely I (below -10%), II (-10% to below 10%), III (10% or more)

sequence_string="AGGAUGAGCAAAGAAAGUAGAUU [hsa-miR-1255a]" target_or_test_system=MCF10A class_label=I
sequence_string="CCAGGCUCUGCAGUGGGA [hsa-miR-3155b]" target_or_test_system=MCF10A class_label=II

Into which category would you place UCUCUGAGCAAGGCUUAACACC [hsa-miR-4653-5p] ? III

// same read-out, input: CACCGACUCUGUCUCCUGCAG [hsa-miR-6510-3p] III

// same read-out, input: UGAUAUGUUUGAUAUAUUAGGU [hsa-miR-190a] I

====

tested on: MCF10A; assay: percent viability (nuclei count relative to siNT); higher = more viable cells; settings: 20 nM; 72 h
1 if percent viability is below 90%. -1 if not; exact matches included in -1.

sequence_string="AGUCAUUGGAGGGUUUGAGCAG [hsa-miR-616-3p]" class_label=1
sequence_string="GCAGGAACUUGUGAGUCUCCU [hsa-miR-873-5p]" class_label=-1
sequence_string="AAAUGUCACCUUUUUGAGAGGA [hsa-miR-513b-3p]" class_label=-1

Strictly below 90% in percent viability? AGCCUUCCAGGAGAAAUGGAGA [hsa-miR-5581-5p] 1

// same read-out, input: AGGAGCUAUCCACUCCAGGUGUCC [hsa-miR-6500-5p] 1

// same read-out, input: CAAGCUCGCUUCUAUGGGUCUG [hsa-miR-99a-3p] 1

====

test system: MCF10A; experiment: percent viability (nuclei count relative to siNT); higher = more viable cells; settings: 20 nM; 72 h
Categories are defined by ranges of percent viability, namely b0 = under 30%, b1 = from 30% up to 70%, b2 = 70% and over

Into which category would you place UGCUGUAUUGUCAGGUAGUGA [hsa-miR-4999-5p] ? b1

// same read-out, input: CGUGUCUUCUGGCUUGAU [hsa-miR-4711-3p] b0

// same read-out, input: CUGGGAGAAGAGUGGUGAAGA [hsa-miR-6788-5p] b0

// same read-out, input: AAAAGUAACUAUGGUUUUUGCC [hsa-miR-548bb-5p] b2

// same read-out, input: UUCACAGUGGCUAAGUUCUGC [hsa-miR-27b-3p] b2

// same read-out, input: CACUGCAUUCCUGCUUGGCCCAG [hsa-miR-6807-3p] b1

// same read-out, input: UCCUAAAUCUGAAAGUCCAAAA [hsa-miR-5009-3p] b2

// same read-out, input: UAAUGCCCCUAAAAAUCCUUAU [hsa-miR-365b-3p] b1

// same read-out, input: CUAGUGAGGGACAGAACCAGGAUUC [hsa-miR-921] b1

// same read-out, input: CAGUUGGGUCUAGGGGUCAGGA [hsa-miR-4259] b0

// same read-out, input: CAGCAGUCCCUCCCCCUG [hsa-miR-4274] b1

====

tested on: MCF10A; assay: percent viability (nuclei count relative to siNT); higher = more viable cells; conditions: 20 nM; 72 h
Entries annotated with measured percent viability
# value in %; strip the unit string

sequence_string="UGCAAAAGUAAUUGCAGUUUUUG [hsa-miR-548aj-5p]" target_or_test_system=MCF10A value_type="percent viability" recorded_value=81.8
sequence_string="ACAUCGCCCCACCUUCCCCAG [hsa-miR-6785-3p]" target_or_test_system=MCF10A value_type="percent viability" recorded_value=102
sequence_string="UCUGCCAUCCUCCCUCCCCUAC [hsa-miR-4769-3p]" target_or_test_system=MCF10A value_type="percent viability" recorded_value=87
sequence_string="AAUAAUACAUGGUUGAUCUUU [hsa-miR-369-3p]" target_or_test_system=MCF10A value_type="percent viability" recorded_value=162

Give the measured percent viability of ACGUUGGCUCUGGUGGUG [hsa-miR-1306-3p] . 18.4

// same read-out, input: UACACAAGAAAACCAAGGCUCA [hsa-miR-4801] 82

// same read-out, input: AGGUGUUAUCCUAUCCAUUUGC [hsa-miR-4694-5p] 25.3

// same read-out, input: UGGCUGUUGGAGGGGGCAGGC [hsa-miR-4687-3p] 23.1

// same read-out, input: GCUGGGAAGGCAAAGGGACGU [hsa-miR-204-3p] 49.7

// same read-out, input: UCAACAAAAUCACUGAUGCUGGA [hsa-miR-3065-5p] 117

// same read-out, input: CGCGCGGCCGUGCUCGGAGCAG [hsa-miR-4479] 34.8

// same read-out, input: GGGGUAUUGUUUCCGCUGCCAGG [hsa-miR-503-3p] 40.1

// same read-out, input: GUUUCACCAUGUUGGUCAGGC [hsa-miR-5096] 49

// same read-out, input: AAUGGCGCCACUAGGGUUGUG [hsa-miR-652-3p] 58.1

// same read-out, input: CAUGGUUCUGUCAAGCACCGCG [hsa-miR-218-2-3p] 68

// same read-out, input: CAUGACGUCACAGAGGCUUCGC [hsa-miR-4757-3p] 61.2

// same read-out, input: AGUUUUGCAGGUUUGCAUCCAGC [hsa-miR-19b-1-5p] 26.2

// same read-out, input: CCCUGUGCCCGGCCCACUUCUG [hsa-miR-1914-5p] 90.2

// same read-out, input: UGUGCAGCAGGCCAACCGAGA [hsa-miR-3944-5p] 69

// same read-out, input: CUAUGGCGAGACUGGCAUGUACUC [hsa-miR-8074] 110

// same read-out, input: CUGGGGAGAUCCUCGAGGUUGG [hsa-miR-3150a-3p] 18.9

// same read-out, input: GGGCGACAAAGCAAGACUCUUUCUU [hsa-miR-1273a] 78.8

// same read-out, input: CAGUGCAAGUGUAGAUGCCGA [hsa-miR-3666] 150

// same read-out, input: UUGCCACACUGCAACACCUUACA [hsa-miR-3064-3p] 39.1

src = the supplement of paper PMC10899765
